- Tested on: PPARg:RXRa DBDmut IVT, anti-RXR (DBD mutation: RXRa K156A/R161A, NR concentration 270 nM, RXRa partner concentration 90 nM)
- METHOD_NOTES: PBM binding z-score (relative to random genomic background probes); higher = stronger binding; sequences stand for … in GC…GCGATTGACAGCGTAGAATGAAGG
# PBM binding z-score per record follows
METRIC: PBM binding z-score

SEQUENCE_ENTRY	METRIC	REPORTED_RESULT
TTACCAAGGTCAAAGGTCGTTGATGCACGCCTTG	PBM binding z-score	4.35
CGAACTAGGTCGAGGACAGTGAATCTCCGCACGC	PBM binding z-score	5.71
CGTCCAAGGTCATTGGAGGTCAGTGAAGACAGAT	PBM binding z-score	3.6
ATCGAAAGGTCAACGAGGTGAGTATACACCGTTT	PBM binding z-score	3.84
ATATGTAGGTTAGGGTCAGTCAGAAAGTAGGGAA	PBM binding z-score	6.27

====

# PBM binding z-score per record follows
- System: LXRb:RXRa (NR concentration 270 nM, RXRa partner concentration 90 nM)
- METHOD_NOTES: PBM binding z-score (relative to random genomic background probes); higher = stronger binding; sequences stand for … in GC…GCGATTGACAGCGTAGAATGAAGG
METRIC: PBM binding z-score

SEQUENCE_ENTRY	MEASURED_ON	REPORTED_RESULT
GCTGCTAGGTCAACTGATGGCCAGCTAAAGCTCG	LXRb:RXRa (NR concentration 270 nM, RXRa partner concentration 90 nM)	1.66
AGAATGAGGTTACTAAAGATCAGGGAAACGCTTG	LXRb:RXRa (NR concentration 270 nM, RXRa partner concentration 90 nM)	5.45
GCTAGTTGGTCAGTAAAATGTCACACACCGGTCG	LXRb:RXRa (NR concentration 270 nM, RXRa partner concentration 90 nM)	-0.14
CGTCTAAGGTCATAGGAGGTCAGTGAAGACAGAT	LXRb:RXRa (NR concentration 270 nM, RXRa partner concentration 90 nM)	6.9
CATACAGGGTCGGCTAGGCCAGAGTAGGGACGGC	LXRb:RXRa (NR concentration 270 nM, RXRa partner concentration 90 nM)	-0.242
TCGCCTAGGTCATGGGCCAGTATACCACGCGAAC	LXRb:RXRa (NR concentration 270 nM, RXRa partner concentration 90 nM)	2.29

====

- Test system: PPARg:RXRa (NR concentration 180 nM, RXRa partner concentration 90 nM)
- METHOD_NOTES: PBM binding z-score (relative to random genomic background probes); higher = stronger binding; sequences stand for … in GC…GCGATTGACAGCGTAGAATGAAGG
# PBM binding z-score per record follows

SEQUENCE_ENTRY	PBM binding z-score
CCTTACGGGTCCCTCCAGGTTATAGCATCGGAGT	-0.172
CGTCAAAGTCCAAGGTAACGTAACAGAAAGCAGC	0.688
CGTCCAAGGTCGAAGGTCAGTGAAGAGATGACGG	5.43
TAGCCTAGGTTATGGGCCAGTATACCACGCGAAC	0.643
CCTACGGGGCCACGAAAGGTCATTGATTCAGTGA	2.82
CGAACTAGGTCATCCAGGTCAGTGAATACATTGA	7.77
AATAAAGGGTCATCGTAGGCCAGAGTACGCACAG	7.14
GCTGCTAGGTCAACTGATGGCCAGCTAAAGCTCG	2.45
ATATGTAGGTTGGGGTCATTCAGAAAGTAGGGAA	7.05
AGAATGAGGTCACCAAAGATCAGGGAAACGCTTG	8.68
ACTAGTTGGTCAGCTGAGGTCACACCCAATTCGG	1.54
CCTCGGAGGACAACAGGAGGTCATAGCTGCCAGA	0.961
